Give hGLP-1R Potency, no HSA, EC50 [pM] for every item shown.
- EXPERIMENTAL SYSTEM: human GLP-1 receptor (human, UniProt P43220 24-463)
- ASSAY DETAILS: cell-based or functional assay
Numbered stars: 1 amine (or outer) side, 2 acyl side, 3 side chain; on linkers, the order of the positions; unused ones are H or OH. Square brackets hold non-standard residues; d marks the D form. Side chains are listed from the residue outwards. * marks the point of attachment. Chem. 22 = C20 diacid gamma-Glu, O=C(O)CCCCCCCCCCCCCCCCCCC(=O)N[C@@H](CCC(=O)*)C(=O)O; C18 diacid = O=C(O)CCCCCCCCCCCCCCCCC(=O)*; γGlu = O=C(O)[C@H](CCC(=O)[*:2])N[*:1]; Chem. 28 = not defined here; AEEA = NCCOCCOCC(=O)O; Aib = CC(C)(N)C(=O)O
Answers are plain numbers, in pM.

Respectfully, I request hGLP-1R Potency, no HSA, EC50 [pM] for each entry included below.
1. Compound 41 (peptide) peptide: Y[Aib]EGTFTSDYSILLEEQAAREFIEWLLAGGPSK(Chem. 22)GAPPPSGGGEASELSTAALGRLSAELHRLADLPRTETGSGSP-NH2
2. Compound 106 (reading uncertain) peptide: H[Aib]HGTFTSDYSILLEEQAAREFIEWLLAGGPSSGALQAPGQAPGASHLSTAQTARLSAELHRLK(Chem. 28)TLPRTETGSGSP-NH2

a:
1: 40.8; 2: 3.33

The following binders each have a reported value; give each one's hGLP-1R Potency, no HSA, EC50 [pM].
1. Compound 113 (peptide) peptide: Y[Aib]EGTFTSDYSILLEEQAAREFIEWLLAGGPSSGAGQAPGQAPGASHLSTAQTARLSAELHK([AEEA-AEEA-γGlu-C18 diacid])LATLPRTETGSGSP-NH2
2. Compound 37 (reading uncertain) peptide: H[Aib]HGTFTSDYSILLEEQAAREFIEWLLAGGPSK(Chem. 28)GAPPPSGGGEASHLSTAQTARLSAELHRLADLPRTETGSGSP-NH2

a:
1. 14.4
2. 3.94
